Source listed as patent US9056865B2.

EXPERIMENTAL_SYSTEM: UniProt:Q99835
PROCEDURE_DETAILS: Smo radioligand competition binding assay
MEASUREMENT_CONTEXT: 0.05 μM test compound; read-out: Smo % inh. @ 0.05 μM
PARAMETER_MEASURED: inhibition at 0.05 µM (%)

CCOC(=O)N1CCN(c2cc(-c3ncccc3C)c(Cl)cn2)CC1 [Example A-39]	80.7
Cc1cnc(-c2cc(N3CCN(S(C)(=O)=O)CC3)ncc2Cl)c(C)c1 [Example A-104]	92.9
CS(=O)(=O)CCC(=O)NC1CCN(c2ccc(Cl)c(-c3ccccn3)n2)CC1 [Example A-128]	95
Cc1cccnc1-c1cc(N2CCN(C(=O)CC(C)(C)O)CC2)ncc1Cl [Example A-47]	95.2
CS(=O)(=O)NC1CCN(c2cc(-c3ccccn3)c(Cl)cn2)CC1 [Example A-7]	45
Cc1cnc(-c2cc(N3CCN(C(=O)CN(C)C)CC3)ncc2Cl)c(C)c1 [Example A-105]	84.5
Cc1cnc(-c2cc(N3CCC(NC(=O)CO)CC3)ncc2Cl)c(C)c1 [Example A-113]	84
CC(C)(O)CC(=O)N1CCN(c2ccc(Cl)c(-c3ccccn3)n2)CC1 [Example A-90]	82.5
Cc1ccc(-c2nc(N3CCC(NS(C)(=O)=O)CC3)ccc2Cl)nc1 [Example A-117]	96
CS(=O)(=O)NC1CCN(c2cc(-c3ccc(F)cn3)c(Cl)cn2)CC1 [Example A-18]	58.9
Cc1cnc(-c2cc(N3CCC(S(C)(=O)=O)CC3)ncc2Cl)c(C)c1 [Example A-134]	80.8
Cc1cc(Cl)cnc1-c1cc(N2CCC(NS(C)(=O)=O)CC2)ncc1Cl [Example A-109]	97.4
Cc1cccnc1-c1cc(N2CCC(C(=O)NC[C@H]3CCCO3)CC2)ncc1Cl [Example A-63]	82.5
Cc1cnc(-c2cc(N3CCN(C(=O)CO)CC3)ncc2Cl)c(C)c1 [Example A-102]	84
CCN(CC)C(=O)COC1CCN(c2cc(-c3ncccc3C)c(Cl)cn2)CC1 [Example A-41]	82.3
Cc1cc(F)cnc1-c1cc(N2CCC(NC(=O)CN(C)C)CC2)ncc1Cl [Example A-145]	88.9
Cc1cccnc1-c1cc(N2CCN(C(=O)CO)CC2)ncc1Cl [Example A-25]	72.1
Cc1cccnc1-c1cc(N2CCC(C(=O)N3CC(S(=O)(=O)CC4CC4)C3)CC2)ncc1Cl [Example A-62]	72.4

* * *

EXPERIMENTAL_SYSTEM: human Smo (Homo sapiens (Human), UniProt Q99835)
Sequence (Q99835 181-787): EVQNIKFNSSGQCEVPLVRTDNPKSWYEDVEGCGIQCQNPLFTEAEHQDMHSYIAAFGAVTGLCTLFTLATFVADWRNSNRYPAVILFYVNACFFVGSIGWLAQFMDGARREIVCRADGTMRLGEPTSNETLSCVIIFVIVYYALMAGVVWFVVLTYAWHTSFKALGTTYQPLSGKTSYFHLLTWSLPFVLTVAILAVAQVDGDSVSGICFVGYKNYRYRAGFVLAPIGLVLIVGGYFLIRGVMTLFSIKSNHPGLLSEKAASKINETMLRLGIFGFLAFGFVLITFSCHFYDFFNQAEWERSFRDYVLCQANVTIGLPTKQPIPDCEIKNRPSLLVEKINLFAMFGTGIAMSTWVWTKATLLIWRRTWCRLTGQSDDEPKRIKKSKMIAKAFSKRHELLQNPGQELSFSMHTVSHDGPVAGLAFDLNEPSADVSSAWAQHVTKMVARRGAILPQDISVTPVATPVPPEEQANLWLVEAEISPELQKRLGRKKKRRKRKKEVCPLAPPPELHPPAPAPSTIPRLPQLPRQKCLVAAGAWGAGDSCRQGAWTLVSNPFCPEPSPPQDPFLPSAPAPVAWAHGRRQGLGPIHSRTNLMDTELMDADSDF
PROCEDURE_DETAILS: Smo radioligand competition binding assay
MEASUREMENT_CONTEXT: 0.05 μM test compound; read-out: Smo % inh. @ 0.05 μM
PARAMETER_MEASURED: inhibition at 0.05 µM (%)

Cc1cccnc1-c1cc(N2CCN(C(=O)CCS(C)(=O)=O)CC2)ncc1Cl	97.5
Cc1cc(F)cnc1-c1cc(N2CCC(NC(=O)CC(C)(C)O)CC2)ncc1Cl	87.4
Cc1cnc(-c2cc(N3CCN(C(=O)CCO)CC3)ncc2Cl)c(C)c1	86
O=C(CCO)NC1CCN(c2ccc(Cl)c(-c3ccccn3)n2)CC1	81.3
Cc1cccnc1-c1nc(N2CCC(NS(C)(=O)=O)CC2)ccc1Cl	97.8
Cc1cccnc1-c1cc(N2CCC(C(=O)N3CCC(Nc4ccccn4)CC3)CC2)ncc1Cl	80.5
Cc1cccnc1-c1cc(N2CCC(NC(=O)CC(C)(C)O)CC2)ncc1Cl	90.6
Cc1cccnc1-c1cc(N2CCC(C(=O)N(C)[C@@H]3CS(=O)(=O)C[C@H]3O)CC2)ncc1Cl	105
